# targetUnderTest: T1, Proleukin® (aldesleukin) (human, UniProt P60568 21-153, limits assumed)
# T1 construct: Variant of human wt IL-2 with C145S (C125S on mature IL-2); also called IL-2 (Proleukin®); human IL-2 (Proleukin)
# T1 sequence (P60568 other isoform, or with tags, fused parts or gaps limits assumed): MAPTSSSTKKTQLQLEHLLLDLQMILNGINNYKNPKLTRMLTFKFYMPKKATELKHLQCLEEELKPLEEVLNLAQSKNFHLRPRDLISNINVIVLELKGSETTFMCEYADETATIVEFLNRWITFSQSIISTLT
# measurementProtocol: ELISA, coated Proleukin, serially diluted supernatant
Could you please report measured EC50 for the items listed next?
The reply must contain the numeric value and, after it, the unit.

# binder, resultValue
rows = [
    ("Antibody No: 32 (antibody, human IgG1, kappa, N297A, V domains shown, VK M33L; HEK293F supernatant) VH: EVQLVQSGAEVKKPGESLKISCKGSGYAFSNYLIEWVRQMPGKGLEWMGVINPGSGGTYYNEKFKGQVTISADKSISTAYLQWSSLKASDTAMYYCARWRGEGYYAYYDVWGQGTTVTVSS VL: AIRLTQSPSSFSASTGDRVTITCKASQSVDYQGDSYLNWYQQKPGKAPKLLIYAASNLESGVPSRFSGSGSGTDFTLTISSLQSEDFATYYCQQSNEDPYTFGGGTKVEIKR", "0.65 nM"),
]

Task item: Query EC50 for Antibody No: 5 (antibody, human IgG1, kappa, N297A, V domains shown, VH WT; VK M33L + A50S; HEK293F supernatant) VH: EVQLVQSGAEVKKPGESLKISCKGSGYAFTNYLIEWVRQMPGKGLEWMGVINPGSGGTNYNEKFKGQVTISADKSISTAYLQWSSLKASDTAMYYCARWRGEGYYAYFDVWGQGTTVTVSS VL: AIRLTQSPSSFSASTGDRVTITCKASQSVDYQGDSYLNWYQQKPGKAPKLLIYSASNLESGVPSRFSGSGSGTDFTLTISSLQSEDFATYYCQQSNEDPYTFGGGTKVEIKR
Reply: 0.5 nM
